molecular target: human MRGPRX2 (Homo sapiens); test: MRGPRX2 IP-1 Gq HTRF assay in HEK293 cells stably expressing human MRGPRX2, Cortistatin-14 at EC75; conditions: 2 hours at 37° C., cellular IP-1
Sequence (Q96LB1 whole entry): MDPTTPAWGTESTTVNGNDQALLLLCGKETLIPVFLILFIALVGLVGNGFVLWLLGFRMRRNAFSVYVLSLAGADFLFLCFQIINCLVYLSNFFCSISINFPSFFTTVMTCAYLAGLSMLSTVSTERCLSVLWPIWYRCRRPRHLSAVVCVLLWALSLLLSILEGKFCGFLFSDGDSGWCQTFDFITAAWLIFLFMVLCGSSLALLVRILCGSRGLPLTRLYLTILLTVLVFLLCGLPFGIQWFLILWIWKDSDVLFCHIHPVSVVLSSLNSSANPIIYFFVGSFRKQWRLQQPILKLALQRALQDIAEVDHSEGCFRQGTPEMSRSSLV
observed property: EC50

Reference set (5 entries):
INPUT: # lookup: EC50 of CC(=O)N1C[C@@H](Nc2nnc(-c3ccc(F)cc3)o2)C[C@@H](Nc2cc(C(F)(F)F)nc3ccc(Cl)cc23)C1 [Example 71]
OUTPUT: > 1000 nM

INPUT: # lookup: EC50 of COc1cc(C(=O)N[C@H]2C[C@@H](Nc3cc(C(F)(F)F)nc4ccc(Cl)cc34)CN(C(C)=O)C2)cc2cn(C(F)F)nc12 [Example 56]
OUTPUT: < 100 nM

INPUT: # lookup: EC50 of CC(=O)N1C[C@@H](NC(=O)c2ccc(C(F)(F)F)cc2)C[C@@H](Nc2cc(C(F)(F)F)nc3ccc(Cl)cc23)C1 [Example 67]
OUTPUT: 100 to 1000 nM

INPUT: # lookup: EC50 of CC(=O)N1C[C@@H](NC(=O)c2cn(CC(C)(C)O)nc2Cl)C[C@@H](Nc2cc(C(F)(F)F)nc3ccc(Cl)cc23)C1 [Example 65]
OUTPUT: < 100 nM

INPUT: # lookup: EC50 of CC(=O)N1C[C@@H](NC(=O)c2cnn(CC(F)(F)F)c2)C[C@@H](Nc2cc(C(F)(F)F)nc3ccc(Cl)cc23)C1 [Example 29]
OUTPUT: < 100 nM

Next:
INPUT: # lookup: EC50 of CC(=O)N1C[C@@H](NC(=O)c2cnn(C(C)C)c2)C[C@@H](Nc2cc(C(F)(F)F)nc3ccc(Cl)cc23)C1 [Example 38]
OUTPUT: 100 to 1000 nM

INPUT: # lookup: EC50 of CNC(=O)N1C[C@@H](NC(=O)c2cccc(NS(C)(=O)=O)c2)C[C@@H](Nc2cc(C(F)(F)F)nc3ccc(Cl)cc23)C1 [Example 9]
OUTPUT: 100 to 1000 nM

INPUT: # lookup: EC50 of CC(=O)N1C[C@@H](NC(=O)c2cnn(C)c2C)C[C@@H](Nc2cc(C(F)(F)F)nc3ccc(Cl)cc23)C1 [Example 39]
OUTPUT: 100 to 1000 nM

INPUT: # lookup: EC50 of CC(=O)N1C[C@@H](NC(=O)c2cnn(-c3ccccc3)c2)C[C@@H](Nc2cc(C(F)(F)F)nc3ccc(Cl)cc23)C1 [Example 69]
OUTPUT: 100 to 1000 nM

INPUT: # lookup: EC50 of CC(=O)N1C[C@@H](NC(=O)c2cnn(C3CCNCC3)c2C)C[C@@H](Nc2cc(C(F)(F)F)nc3ccc(Cl)cc23)C1 [Example 34]
OUTPUT: > 1000 nM

INPUT: # lookup: EC50 of CN1C[C@@H](NC(=O)c2cccc(NS(C)(=O)=O)c2)C[C@@H](Nc2cc(C(F)(F)F)nc3ccccc23)C1 [Example 51]
OUTPUT: > 1000 nM

INPUT: # lookup: EC50 of CS(=O)(=O)Nc1cccc(C(=O)N[C@H]2CC(Nc3cc(C(F)(F)F)nc4ccc(Cl)cc34)CN(C(=O)c3cccnc3)C2)c1 (stereo partly shown) [Example 19]
OUTPUT: 100 to 1000 nM

INPUT: # lookup: EC50 of CN1C[C@@H](NC(=O)c2cccc(NS(C)(=O)=O)c2)C[C@@H](N(C)c2cc(C(F)(F)F)nc3ccccc23)C1 [Example 52]
OUTPUT: > 1000 nM

Data origin: patent US20250313569A1
